- systemUnderTest: Estrogen receptor (Homo sapiens) (UniProt P03372)
- Sequence (P03372 whole entry, looked up, the tested form may be a part): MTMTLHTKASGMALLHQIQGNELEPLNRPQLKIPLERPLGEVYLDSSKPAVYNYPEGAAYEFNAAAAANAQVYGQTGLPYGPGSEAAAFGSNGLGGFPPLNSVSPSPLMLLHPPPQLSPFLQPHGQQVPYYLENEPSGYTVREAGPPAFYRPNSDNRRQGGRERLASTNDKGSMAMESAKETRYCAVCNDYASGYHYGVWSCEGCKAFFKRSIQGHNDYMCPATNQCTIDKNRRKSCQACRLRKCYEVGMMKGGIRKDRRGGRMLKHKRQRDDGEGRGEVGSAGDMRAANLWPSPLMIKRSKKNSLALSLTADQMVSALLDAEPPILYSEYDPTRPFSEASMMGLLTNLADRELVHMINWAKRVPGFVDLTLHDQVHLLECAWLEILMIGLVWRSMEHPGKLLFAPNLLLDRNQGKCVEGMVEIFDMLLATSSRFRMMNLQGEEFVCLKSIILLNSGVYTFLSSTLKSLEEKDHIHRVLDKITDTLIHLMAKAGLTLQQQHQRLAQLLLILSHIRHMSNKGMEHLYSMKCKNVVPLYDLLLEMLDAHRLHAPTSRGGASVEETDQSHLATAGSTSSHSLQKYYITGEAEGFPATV
- experimentDescription: ERα coactivator recruitment potentiators – biochemical, TR-FRET, ERα LBD, low estradiol, primary screen (AID 639);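 also: binding measured in presence of low estradiol as agonist stimulus; 0% = peptide alone without receptor and 100% = receptor with peptide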
- conditionInfo: TR-FRET ERalpha-LBD/SRC-Cy5 coactivator binding, 2 h; at 25.6 µM; 100 = basal binding, no effect
The campaign covered roughly 86,000 compounds. About 1,200 (1.4%) were called active. Rule as the data show it: active = activity above about 200%; inactive = the rest. The entries come from a sample that favours actives as a whole.
Possible outcomes: active, inactive

molecule: COCCCNC(=O)CN1CCN(Cc2ccccc2Cl)C1=O
group: inactive
--
molecule: O=c1[nH]c(SCc2ccccc2)nnc1-c1ccccc1
group: inactive
--
molecule: CCOc1ccc(CC(=O)Nc2ccc(S(=O)(=O)Nc3cc(C)on3)cc2)cc1OCC
group: active
--
molecule: O=S(=O)(NCCNS(=O)(=O)c1ccccc1)c1ccccc1
group: inactive
--
molecule: O=S(=O)(NCCc1ccccc1)c1ccccc1
group: active
--
molecule: CCOc1ccc(N=C2NC(=O)S/C2=C\c2ccc(O)cc2)cc1
group: inactive
--
molecule: CCOc1cc(C(=O)Nc2c(C)ccc3nsnc23)cc(OCC)c1OCC
group: inactive
--
molecule: CCCC1(C(=O)OCC)NC(c2ccc(N(C)C)cc2)C2C(=O)N(c3ccc4c(c3)OCCO4)C(=O)C21 (stereo unspecified)
group: inactive
--
molecule: Cc1cc(NS(=O)(=O)c2ccccc2)no1
group: inactive
--
molecule: CC(C)C[C@@H](N)c1nnc(SCC(=O)c2ccc(Cl)cc2)o1
group: inactive
--
molecule: COc1ccc(N2CCN(C(=O)CCc3nc(-c4ccc(C)cc4)no3)CC2)cc1
group: inactive

----------
- systemUnderTest: Estrogen receptor (Homo sapiens) (UniProt P03372)
- experimentDescription: ERα coactivator recruitment potentiators – biochemical, TR-FRET, ERα LBD, low estradiol, primary screen (AID 639);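 also: binding measured in presence of low estradiol as agonist stimulus; 0% = peptide alone without receptor and 100% = receptor with peptide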
- conditionInfo: TR-FRET ERalpha-LBD/SRC-Cy5 coactivator binding, 2 h; at 25.6 µM; 100 = basal binding, no effect
Hit rate of the full screen: of about 86,000 compounds, about 1,200 (1.4%) were called active. No stated cut-off is given here; in the data, active means activity above about 200%; inactive means the rest. The sample holds actives, similar compounds and a random draw of the others, so the mix is not that of the screen.
Possible outcomes: True = active, False = inactive

compound: CC(C)(C)n1nnnc1C(c1ccc(Cl)cc1)N1CCSCC1 (stereo unspecified)
systemUnderTest: Estrogen receptor (Homo sapiens) (UniProt P03372)
group: False
--
compound: COc1cc(OC)c(NC(=O)c2ccc(Br)o2)cc1Cl
systemUnderTest: Estrogen receptor (Homo sapiens) (UniProt P03372)
group: False
--
compound: CN(C)c1ccnc2sc3c(=O)n(-c4ccc(Cl)cc4)cnc3c12
systemUnderTest: Estrogen receptor (Homo sapiens) (UniProt P03372)
group: False
--
compound: O=C(NCc1ccco1)c1cccn2c(=O)c3cc(Br)ccc3nc12
systemUnderTest: Estrogen receptor (Homo sapiens) (UniProt P03372)
group: True
--
compound: COC(=O)c1ccc(NC(=O)C23CC4CC(C2)CC(n2cnc(Cl)n2)(C4)C3)cc1
systemUnderTest: Estrogen receptor (Homo sapiens) (UniProt P03372)
group: False
--
compound: O=C(NCc1ccco1)c1cc(-c2cccnc2)nc2ccc(Cl)cc12
systemUnderTest: Estrogen receptor (Homo sapiens) (UniProt P03372)
group: False

----------
- systemUnderTest: Estrogen receptor (Homo sapiens) (UniProt P03372)
- experimentDescription: ERα coactivator recruitment potentiators – biochemical, TR-FRET, ERα LBD, low estradiol, primary screen (AID 639);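 also: binding measured in presence of low estradiol as agonist stimulus; 0% = peptide alone without receptor and 100% = receptor with peptide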
- conditionInfo: TR-FRET ERalpha-LBD/SRC-Cy5 coactivator binding, 2 h; at 25.6 µM; 100 = basal binding, no effect
Among all 86,000 compounds or so, about 1,200 (1.4%) were called active. No stated cut-off is given here; in the data, active means activity above about 200%; inactive means the rest. Shown is part of a subset that was picked to be rich in actives.
Possible outcomes: true = active, false = inactive

moleculeSmiles: COc1ccc(-c2nnc(SCC(=O)c3cccs3)o2)c(OC)c1
systemUnderTest: Estrogen receptor (Homo sapiens) (UniProt P03372)
group: false
//
moleculeSmiles: COc1ccc(-n2ncc3c(N4CCCc5ccccc54)ncnc32)cc1
systemUnderTest: Estrogen receptor (Homo sapiens) (UniProt P03372)
group: false
//
moleculeSmiles: COc1ccc(-n2c(C)cc(C(=O)CSc3nnc(-c4cccs4)o3)c2C)cc1
systemUnderTest: Estrogen receptor (Homo sapiens) (UniProt P03372)
group: true
//
moleculeSmiles: COc1ccccc1NC(=O)CSc1nc2sc(C)c(C)c2c(=O)n1Cc1ccco1
systemUnderTest: Estrogen receptor (Homo sapiens) (UniProt P03372)
group: true
//
moleculeSmiles: COc1ccc(OC)c(C(=O)CSc2nnc(-c3cccs3)o2)c1
systemUnderTest: Estrogen receptor (Homo sapiens) (UniProt P03372)
group: false
//
moleculeSmiles: O=c1[nH][nH]c(C(F)(F)F)c1C=NCc1ccccc1Cl
systemUnderTest: Estrogen receptor (Homo sapiens) (UniProt P03372)
group: false
//
moleculeSmiles: CCSc1nc(-c2ccc(OC)cc2)cc(-c2ccc(OC)cc2)c1C#N
systemUnderTest: Estrogen receptor (Homo sapiens) (UniProt P03372)
group: true
//
moleculeSmiles: COC(=O)c1cc(OC)ccc1-c1ccc(OC)cc1
systemUnderTest: Estrogen receptor (Homo sapiens) (UniProt P03372)
group: false
//
moleculeSmiles: O=c1c2ccccc2nc2n1C1(CCCCC1)Cc1ccccc1-2
systemUnderTest: Estrogen receptor (Homo sapiens) (UniProt P03372)
group: false
//
moleculeSmiles: CCc1nnc(NC(=O)CSc2nc3ccccc3c(=O)n2CCCOC)s1
systemUnderTest: Estrogen receptor (Homo sapiens) (UniProt P03372)
group: false
//
moleculeSmiles: Cc1ccc(OCC(=O)Nc2ccc(-c3nnc(-c4ccco4)o3)cc2)cc1
systemUnderTest: Estrogen receptor (Homo sapiens) (UniProt P03372)
group: false

----------
Some compounds, each annotated with its measured coactivator binding (% of control).
- systemUnderTest: Estrogen receptor (Homo sapiens) (UniProt P03372)
- experimentDescription: ERα coactivator recruitment potentiators – biochemical, TR-FRET, ERα LBD, low estradiol, primary screen (AID 639);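 also: binding measured in presence of low estradiol as agonist stimulus; 0% = peptide alone without receptor and 100% = receptor with peptide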
- conditionInfo: TR-FRET ERalpha-LBD/SRC-Cy5 coactivator binding, 2 h; at 25.6 µM; active compounds read high; 100 = basal binding, no effect
Out of some 86,000 compounds screened, about 1,200 (1.4%) were called active. The sample as a whole holds a higher share of actives than the screen did.
measuredParameter: coactivator binding (% of control) (%)

compound: O=C(O)CSc1nccn1-c1cccc(Cl)c1
systemUnderTest: Estrogen receptor (Homo sapiens) (UniProt P03372)
readoutValue: 100
--
compound: CC(C)OCCCNC(=O)C1CC(=O)N(C2CCCCCCC2)C1 (stereo unspecified)
systemUnderTest: Estrogen receptor (Homo sapiens) (UniProt P03372)
readoutValue: 80.7
--
compound: CCN(CC)C(=O)CSc1nnc(CNc2ccc(F)cc2)n1Cc1ccco1
systemUnderTest: Estrogen receptor (Homo sapiens) (UniProt P03372)
readoutValue: 86.8
--
compound: COC(=O)C(C(=O)Nc1cccc(C)n1)C1CCCCCC1 (stereo unspecified)
systemUnderTest: Estrogen receptor (Homo sapiens) (UniProt P03372)
readoutValue: 76.6
--
compound: CCOC(=O)c1cc2cc(-c3c(C(=O)OCC)oc4cc(O)cc(O)c4c3=O)ccc2o1
systemUnderTest: Estrogen receptor (Homo sapiens) (UniProt P03372)
readoutValue: 72.5
--
compound: CC(NC(=O)C1CCC(CNc2c(N3CCOCC3)c(=O)c2=O)CC1)c1ccccc1 (stereo unspecified)
systemUnderTest: Estrogen receptor (Homo sapiens) (UniProt P03372)
readoutValue: 98.1
